Assay: Intrinsic clearance in human liver microsomes
Assay type: ADME, Microsome
Metric name: microsomal CLint (µL/min/mg)

Some compounds with known microsomal CLint results, for comparison:
>>> reported_measurement("COc1cc2c(cc1-c1cnco1)C(=O)N(C)C1(CCN(C(=O)N(C)c3ccccc3)C1)N2 (configuration not stated)")
144
>>> reported_measurement("CCN(CC)C(=O)N1CCC2(C1)Nc1cc(OC)c(-c3cnco3)cc1C(=O)N2C (configuration not stated)")
92

I = COc1cc2c(cc1-c1cnco1)C(=O)N(C)C1(CCN(C(=O)N(C)c3ccc(F)cc3F)C1)N2 (configuration not stated)
II = COc1cc2c(cc1-c1cnco1)C(=O)N(C)C1(CCN(C(=O)N3CCCCC3)C1)N2 (configuration not stated)
III = COc1cc2c(cc1-c1cnco1)C(=O)N(C)C1(CCN(C(=O)Nc3ccccc3)C1)N2 (configuration not stated)
IV = COc1cc2c(cc1-c1cnco1)C(=O)N(C)C1(CCN(C(=O)N(C)OC)C1)N2 (configuration not stated)
V = CCNC(=O)N1CCC2(C1)Nc1cc(OC)c(-c3cnco3)cc1C(=O)N2C (configuration not stated)
Order the records so the highest microsomal CLint appears first and the lowest last. # format: label list in the order the request specifies II, I, IV, III, V
(II: 152 µL/min/mg, I: 97 µL/min/mg, IV: 38 µL/min/mg, III: 19 µL/min/mg, V: 11 µL/min/mg)
